target: Human immunodeficiency virus type 2 pol protein (Human immunodeficiency virus 2)
Sequence (P88142 whole entry): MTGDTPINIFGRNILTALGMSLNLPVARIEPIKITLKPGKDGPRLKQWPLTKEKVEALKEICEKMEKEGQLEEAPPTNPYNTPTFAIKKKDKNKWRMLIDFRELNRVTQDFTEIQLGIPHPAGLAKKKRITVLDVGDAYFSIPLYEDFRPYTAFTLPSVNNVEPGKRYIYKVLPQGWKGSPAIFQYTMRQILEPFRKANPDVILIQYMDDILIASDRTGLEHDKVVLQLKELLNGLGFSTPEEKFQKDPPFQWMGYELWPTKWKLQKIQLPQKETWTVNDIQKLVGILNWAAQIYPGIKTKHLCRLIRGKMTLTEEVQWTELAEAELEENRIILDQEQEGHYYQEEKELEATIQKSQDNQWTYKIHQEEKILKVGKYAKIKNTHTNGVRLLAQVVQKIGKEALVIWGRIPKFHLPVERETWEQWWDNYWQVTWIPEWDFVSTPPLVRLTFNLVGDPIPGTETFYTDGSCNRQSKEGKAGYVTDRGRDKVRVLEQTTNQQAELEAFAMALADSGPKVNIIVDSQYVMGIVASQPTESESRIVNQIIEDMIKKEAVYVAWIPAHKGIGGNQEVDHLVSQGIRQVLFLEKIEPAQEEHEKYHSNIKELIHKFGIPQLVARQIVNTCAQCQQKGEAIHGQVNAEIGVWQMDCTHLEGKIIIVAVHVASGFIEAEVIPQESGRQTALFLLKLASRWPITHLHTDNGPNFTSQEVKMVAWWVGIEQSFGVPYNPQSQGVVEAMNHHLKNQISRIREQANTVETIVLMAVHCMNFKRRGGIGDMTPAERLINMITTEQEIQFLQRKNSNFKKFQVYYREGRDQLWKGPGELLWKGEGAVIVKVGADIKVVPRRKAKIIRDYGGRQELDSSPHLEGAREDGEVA
fulfilled if IC50 is below 10 µM. not fulfilled if not; exact matches included in not fulfilled.

Completed entries (count: 8):
Compound	Target system	Qualitative label
CC1=C(C(COC(=O)c2ccccc2)OC(=O)c2ccccc2)c2cc3nc(cc4[nH]c(cc5[nH]c(cc1n2)c(C)c5CCC(=O)O)c(CCC(=O)O)c4C)C(C(COC(=O)c1ccccc1)OC(=O)c1ccccc1)=C3C (centres undefined)	Human immunodeficiency virus type 2 pol protein (Human immunodeficiency virus 2)	not fulfilled
CC1=C(C(COC(=O)c2ccc(N(C)C)cc2)OC(=O)c2ccc(N(C)C)cc2)c2cc3nc(cc4[nH]c(cc5[nH]c(cc1n2)c(C)c5CCC(=O)O)c(CCC(=O)O)c4C)C(C(COC(=O)c1ccc(N(C)C)cc1)OC(=O)c1ccc(N(C)C)cc1)=C3C (centres undefined)	Human immunodeficiency virus type 2 pol protein (Human immunodeficiency virus 2)	not fulfilled
CC1=C(C(COC(=O)c2ccc3ccccc3c2)OC(=O)c2ccc3ccccc3c2)c2cc3nc(cc4[nH]c(cc5[nH]c(cc1n2)c(C)c5CCC(=O)O)c(CCC(=O)O)c4C)C(C(COC(=O)c1ccc2ccccc2c1)OC(=O)c1ccc2ccccc2c1)=C3C (centres undefined)	Human immunodeficiency virus type 2 pol protein (Human immunodeficiency virus 2)	not fulfilled
CC1=C(CCC(=O)O)c2cc3[nH]c(cc4[nH]c(cc5nc(cc1n2)C(C)=C5C(COC(=O)C1=CCC1)OC(=O)C1=CCC1)c(C)c4C(COC(=O)C1=CCC1)OC(=O)C1=CCC1)c(C)c3CCC(=O)O (centres undefined)	Human immunodeficiency virus type 2 pol protein (Human immunodeficiency virus 2)	fulfilled
CC1=C(C(COC(=O)C23C[C@H]4C[C@@H](C2)C[C@@H](C3)C4)OC(=O)C23C[C@H]4C[C@@H](C2)C[C@@H](C3)C4)c2cc3nc(cc4[nH]c(cc5[nH]c(cc1n2)c(C)c5CCC(=O)O)c(CCC(=O)O)c4C)C(C(COC(=O)C12C[C@H]4C[C@@H](C1)C[C@@H](C2)C4)OC(=O)C12C[C@H]4C[C@@H](C1)C[C@@H](C2)C4)=C3C (some centres undefined)	Human immunodeficiency virus type 2 pol protein (Human immunodeficiency virus 2)	not fulfilled
C=CC1=C(C)c2cc3[nH]c(cc4nc(cc5[nH]c(cc1n2)c(C)c5CCC(=O)O)C(CCC(=O)O)=C4C)c(C)c3C=C [PROTOPORPHYRIN]	Human immunodeficiency virus type 2 pol protein (Human immunodeficiency virus 2)	not fulfilled
CC1=C(CCC(=O)O)c2cc3[nH]c(cc4[nH]c(cc5nc(cc1n2)C(C)=C5C(COC(=O)C1=CC1)OC(=O)C1=CC1)c(C)c4C(COC(=O)C1=CC1)OC(=O)C1=CC1)c(C)c3CCC(=O)O (stereo in doubt)	Human immunodeficiency virus type 2 pol protein (Human immunodeficiency virus 2)	not fulfilled
CC[C@H](C)[C@H](NC(=O)[C@H](C(C)C)[C@@H](O)[C@H](O)[C@H](CC1CCCCC1)NC(=O)[C@H](Cc1c[nH]cn1)NC(=O)COc1cccc2ccccc12)C(=O)NCc1ccccn1	Human immunodeficiency virus type 2 pol protein (Human immunodeficiency virus 2)	fulfilled

Let us examine a further case.
Exam item: Confirm or reject: IC50 of CC1=C(C(O)CO)c2cc3nc(cc4[nH]c(cc5[nH]c(cc1n2)c(C)c5CCC(=O)O)c(CCC(=O)O)c4C)C(C(O)CO)=C3C (centres undefined) lies strictly below 10 µM
Marked response: not fulfilled
